# target.system: E. feacalis DltA (Enterococcus faecalis, UniProt Q830N0)
# Sequence (Q830N0 1-506): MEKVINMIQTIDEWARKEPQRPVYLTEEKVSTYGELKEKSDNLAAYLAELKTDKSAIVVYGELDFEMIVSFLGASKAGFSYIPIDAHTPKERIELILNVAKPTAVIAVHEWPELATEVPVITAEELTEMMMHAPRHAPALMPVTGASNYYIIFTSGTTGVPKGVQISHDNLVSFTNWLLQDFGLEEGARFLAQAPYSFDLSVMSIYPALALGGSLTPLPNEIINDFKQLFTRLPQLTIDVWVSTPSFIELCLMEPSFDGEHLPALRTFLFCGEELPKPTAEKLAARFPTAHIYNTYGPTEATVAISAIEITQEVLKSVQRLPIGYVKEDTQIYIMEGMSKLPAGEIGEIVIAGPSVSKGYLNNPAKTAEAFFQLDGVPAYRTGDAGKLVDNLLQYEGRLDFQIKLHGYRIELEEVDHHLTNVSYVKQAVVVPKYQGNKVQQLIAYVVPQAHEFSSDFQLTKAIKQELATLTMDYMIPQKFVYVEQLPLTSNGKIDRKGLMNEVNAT
Structures can show the parent of a compound that is named as a salt.
Hi there, I'd appreciate the recorded pIC50 for every entry that follows.
Keep it numeric: pIC50 is minus log10 of the concentration in mol/L.

Q) Give its pIC50 value. Item: O=c1[nH]cnc2c1c(C1CCC(CO)C1)cn2-c1ccc2c(c1)ncn2C1CCCCC1 (stereo not drawn)
A) 6.72

Q) Give its pIC50 value. Item: O=c1[nH]cnc2c(-c3ccc4c(c3)ncn4C3CCCCC3)sc(N3CC4C(O)C4C3)c12 (stereo not drawn)
A) 7.07

Q) Give its pIC50 value. Item: O=c1[nH]cnc2c(-c3ccc4c(c3)ncn4C3CCCCC3)sc(C3=CCNCC3)c12 [Example 37, hydrochloride]
A) 7.60

Q) Give its pIC50 value. Item: COCCn1cnc2cc(-c3sc(N4CC[C@H](CO)C4)c4c(=O)[nH]cnc34)ccc21
A) 6.82

Q) Give its pIC50 value. Item: O=c1[nH]cnc2c(-c3ccc4c(c3)ncn4C3CCCCC3)sc(N3CCC(CCO)C3)c12 (stereo not drawn)
A) 6.92

Q) Give its pIC50 value. Item: O=c1[nH]cnc2c(-c3ccc4c(c3)ncn4C3CCCCC3)sc(N3CC[C@H](CO)C3)c12
A) 7.43

Q) Give its pIC50 value. Item: O=c1[nH]cnc2c(-c3ccc4c(c3)ncn4C3CCCCC3)sc(N3C[C@H](CO)[C@@H](CO)C3)c12
A) 7.41

Q) Give its pIC50 value. Item: O=c1[nH]cnc2c(-c3ccc4c(c3)ncn4C3CCCCC3)cn([C@H]3CC[C@@H](CO)CC3)c12
A) 7.03

Q) Give its pIC50 value. Item: O=c1[nH]cnc2c(-c3ccc4c(c3)ncn4C3CCCCC3)cn(C3CCCC(O)C3)c12 (racemic) [Example 70A]
A) 6.24

Q) Give its pIC50 value. Item: O=c1[nH]cnc2c(-c3ccc4c(c3)ncn4C3CCCCC3)sc(N3CC4CNCC4(CO)C3)c12 (stereo not drawn) [Example 34, hydrochloride]
A) 7.85

Q) Give its pIC50 value. Item: CN1CC=C(c2sc(-c3ccc4c(c3)ncn4C3CCCCC3)c3nc[nH]c(=O)c23)CC1 [Example 38, hydrochloride]
A) 7.38

Q) Give its pIC50 value. Item: O=c1[nH]cnc2c1c(C1=CCNCC1)cn2-c1ccc2c(c1)ncn2C1CCCCC1 [Example 52, hydrochloride]
A) 7.59

Q) Give its pIC50 value. Item: O=c1[nH]cnc2c(-c3ccc4c(c3)ncn4C3CCCCC3)cn(C3CCOCC3)c12
A) 6.77

Q) Give its pIC50 value. Item: O=c1[nH]cnc2c(-c3ccc4c(c3)ncn4C3CCCCC3)cn(CCCO)c12
A) 6.74

Q) Give its pIC50 value. Item: O=c1[nH]cnc2c(-c3ccc4c(c3)ncn4C3CCCOC3)sc(N3CC[C@H](CO)C3)c12 (stereo partly drawn)
A) 7.09

Every entry's value here was drawn from patent EP2913333A1.
